Measured pIC50 accompanies every entry in the list below.
Target: human CXCR3 (N-delta 4) (Homo sapiens, UniProt P49682)
Construct: CD8 leader (N); Flag tag; expressed in transfected cells; membranes
Sequence (P49682 5-368 limits assumed): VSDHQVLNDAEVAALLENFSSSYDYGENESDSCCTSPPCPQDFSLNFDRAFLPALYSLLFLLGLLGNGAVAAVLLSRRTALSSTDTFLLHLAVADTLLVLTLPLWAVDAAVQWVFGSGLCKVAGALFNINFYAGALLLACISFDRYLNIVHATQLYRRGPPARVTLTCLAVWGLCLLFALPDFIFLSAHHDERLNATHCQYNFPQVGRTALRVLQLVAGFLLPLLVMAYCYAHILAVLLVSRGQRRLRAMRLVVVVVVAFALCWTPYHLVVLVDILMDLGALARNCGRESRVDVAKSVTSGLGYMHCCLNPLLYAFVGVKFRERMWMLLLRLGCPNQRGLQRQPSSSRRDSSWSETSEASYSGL
Assay: Human CXCR3 (N-delta 4) Scintillation Proximity Assay (SPA), [125I] IP-10 binding
Conditions: IC50 rating; [125I] IP-10 displacement, Ba/F3-hCXCR3 (N-delta 4) membranes
pIC50: −log10 of the molar value.

# count of solved cases: 3
1) CC[C@H]1CN(c2ncc(C3=NCCN3)cc2Cl)CCN1C1CCN(C(=O)c2ccc(Cl)cc2C#N)CC1 [Compound 82] = > 7.60
2) CC[C@H]1CN(c2ncc(-c3ncc[nH]3)cc2Cl)CCN1C1CCN(Cc2ccc(I)cc2)CC1 [Compound 3] = > 7.60
3) CC[C@H]1CN(c2ncc(-c3nnc(C(C)(C)O)o3)cc2Cl)CCN1C1CCN(Cc2ccc(Cl)cc2F)CC1 [Compound 98] = > 7.60

Which measured pIC50 value corresponds to CC[C@H]1CN(c2ncc(-c3ncc[nH]3)cc2Cl)CCN1C1CCN([C@@H](CO)c2ccc(Cl)cc2)CC1 [Compound 10] ?
> 7.60

Which measured pIC50 value corresponds to CC[C@H]1CN(c2ncc(-c3ncc[nH]3)cc2Cl)CCN1C1CCN([C@H](C(=O)OC)c2ccc(Cl)cc2)CC1 [Compound 133] ?
< 7.00

Which measured pIC50 value corresponds to CC[C@H]1CN(c2ncc(-c3ncc[nH]3)cc2Cl)CCN1C1CCN([C@@H](C(=O)NCC(F)(F)F)c2ccc(Cl)cc2)CC1 [Compound 99] ?
> 7.60

---

biological target: human CXCR3 (N-delta 4) (Homo sapiens); construct: CD8 leader (N); Flag tag; expressed in transfected cells; membranes; assay: Human CXCR3 (N-delta 4) Scintillation Proximity Assay (SPA), [125I] IP-10 binding; details: [125I] IP-10 displacement, Ba/F3-hCXCR3 (N-delta 4) membranes
reportedMetric: IC50 (nM)
Supply the numeric figure in nM, leaving out any unit text.

Which measured IC50 value corresponds to CC[C@H]1CN(c2ncc(-c3ncc[nH]3)cc2Cl)CCN1C1CCN(Cc2ccc(Cl)cc2)CC1 ?
0.2

---

Measured pIC50 accompanies every entry in the list below.
molecular target: human CXCR3 (N-delta 4) (Homo sapiens, UniProt P49682); construct: CD8 leader (N); Flag tag; expressed in transfected cells; membranes; experiment: Human CXCR3 (N-delta 4) Scintillation Proximity Assay (SPA), [125I] IP-10 binding; conditions: IC50 rating; [125I] IP-10 displacement, Ba/F3-hCXCR3 (N-delta 4) membranes
pIC50: −log10 of the molar value.

# count of solved cases: 6
1) CC[C@H]1CN(c2ncc(C3=NCCN3)cc2Cl)CCN1C1CCN([C@H](CO)c2ccc(Cl)cc2)CC1 = > 7.60
2) CC[C@H]1CN(c2ncc(-c3nnc(C)o3)cc2Cl)CCN1C1CCN(Cc2ccc(Cl)cc2F)CC1 = > 7.60
3) CC[C@H]1CN(c2ncc(C3=NCCN3)cc2Cl)CCN1C1CCN(C(=O)c2ccc(Cl)cc2)CC1 = > 7.60
4) CC[C@H]1CN(c2ncc(-c3ncc[nH]3)cc2Cl)CCN1C1CCN(C(=O)C2(c3ccc(Cl)cc3)CC2)CC1 = < 7.00
5) CC[C@H]1CN(c2ncc(-c3noc(=O)[nH]3)cc2Cl)CCN1C1CCN(Cc2ccc(Cl)cc2F)CC1 = < 7.00
6) CC[C@H]1CN(c2c(F)cc(-c3ncc[nH]3)cc2C(F)(F)F)CCN1C1CCN(Cc2ccc(Cl)cc2F)CC1 = > 7.60

Which measured pIC50 value corresponds to CC[C@H]1CN(c2ncc(-c3ncc[nH]3)cc2Cl)CCN1C1CCN(Cc2ccc(C#CC(C)(C)O)cc2)CC1 ?
> 7.60
